These entries and their values trace back to the supplement of paper PMC13380429.

- Test system: HepG2
- procedure summary: drug sensitivity score (DSS) for viability; higher = more toxic; extreme values may be limits of the assay
- recorded conditions: 72 h
result type: drug sensitivity score
Form rule: numeric answer, no unit written next to it.

Some solved entries appear below for comparison.
{"compound": "Oc1cc2c(cc1O)[C@H]1c3ccccc3CN[C@@H]1CC2 (racemic) [dihydrexidine]", "result type": "drug sensitivity score", "assay result": 0}
{"compound": "Cc1c(C(=O)Nc2ccc(N3CCC(N4CCOCC4)CC3)c(C#N)c2)cnn1-c1ccc(Cl)cc1 [Y-320]", "result type": "drug sensitivity score", "assay result": 7.6}
{"compound": "O=C1C[C@@H]2OCC=C3CN4CC[C@]56c7ccccc7N1[C@H]5[C@H]2[C@H]3C[C@H]46 [strychnine]", "result type": "drug sensitivity score", "assay result": 1.7}
{"compound": "CSc1nc(-c2ccc(F)cc2)c(-c2ccnc(N[C@@H](C)c3ccccc3)c2)[nH]1 [ML3403]", "result type": "drug sensitivity score", "assay result": 0.1}
{"compound": "C=Cc1c(C)c2cc3nc(c(CC(=O)O)c4[n-]c(cc5nc(cc1[n-]2)C(C)=C5CC)c(C)c4C(=O)O)[C@@H](CCC(=O)O)[C@@H]3C.[Cu+2] [chlorophyllin-copper]", "result type": "drug sensitivity score", "assay result": 0}

Annotate the compound NC(=O)c1ccc(I)c([N+](=O)[O-])c1 [iniparib] with its measured drug sensitivity score.
0

Annotate the compound CN[C@@H]1[C@H](O)[C@H](NC)[C@H]2O[C@@]3(O)C(=O)C[C@@H](C)O[C@H]3O[C@@H]2[C@H]1O [spectinomycin] with its measured drug sensitivity score.
0

Annotate the compound c1ccc(C2CN3CCSC3=N2)cc1 (stereo unspecified) [tetramisole] with its measured drug sensitivity score.
0

Annotate the compound NC(=O)N/N=C/c1ccc(Oc2ccc(F)cc2)cc1 with its measured drug sensitivity score.
0.1

Annotate the compound C#CCN1C(C)=C(C(=O)OC)C(c2cccc([N+](=O)[O-])c2)C(C(=O)OCC)=C1C (stereo unspecified) [MRS-1845] with its measured drug sensitivity score.
0

---

# cell viability per record follows
- System: U2OS
- procedure summary: cell viability relative to DMSO; higher = less toxic
- recorded conditions: 72 h; 1000 nM
Respond numerically; units are % and should not be typed.

{"molecule": "CC[C@@H](C)c1ccc(NC(=O)Cn2cnc3c2c(=O)n(C)c(=O)n3C)cc1 (racemic)", "unit name": "%", "assay result": 96.9}
{"molecule": "N=C(N)Nc1ccc(C(=O)Oc2ccc3cc(C(=N)N)ccc3c2)cc1", "unit name": "%", "assay result": 97.6}
{"molecule": "Cc1cc(OCCCS(C)(=O)=O)cc(C)c1-c1cccc(COc2ccc3c(c2)OC[C@H]3CC(=O)O)c1", "unit name": "%", "assay result": 96.7}

Provide cell viability, recorded with U2OS, of C[C@H](Nc1ncnc2[nH]cnc12)c1cc2ccc(F)cc2nc1-c1ccccn1
102

Provide cell viability, recorded with U2OS, of Cn1cc(-c2cnn3c(N)c(Br)c([C@@H]4CCCNC4)nc23)cn1
73.4

---

# cell viability per record follows
- Tested on: U2OS
- procedure summary: cell viability relative to DMSO; higher = less toxic
- recorded conditions: 72 h; 100 nM
Respond numerically; units are % and should not be typed.

Some solved entries appear below for comparison.
{"compound": "O=C(O)CCNC(=O)c1ccccc1", "unit name": "%", "cell viability": 101}
{"compound": "Clc1cccc(Cl)c1CSc1nnc(-c2cnccn2)s1", "unit name": "%", "cell viability": 90.6}
{"compound": "Cc1c(NC(=O)c2cc3c(s2)CCCC3)cccc1-c1cn(C)c(=O)c(Nc2ccc(C3C(=O)N(C)CCN3C)cc2)n1 (stereo in doubt)", "unit name": "%", "cell viability": 98.5}
{"compound": "CO[C@H]1/C=C/O[C@@]2(C)Oc3c(C)c(O)c4c(O)c(c(/C=N/N5CCN(C)CC5)c(O)c4c3C2=O)NC(=O)/C(C)=C\\C=C\\[C@H](C)[C@H](O)[C@@H](C)[C@@H](O)[C@@H](C)[C@H](OC(C)=O)[C@@H]1C", "unit name": "%", "cell viability": 98.2}

// next entry
Annotate the compound CN1C/C=C/CCOc2cccc(c2)-c2ccnc(n2)Nc2cccc(c2)C1 with its measured cell viability.
86

---

- Tested on: Vero E6
- procedure summary: cell viability relative to DMSO; higher = less toxic
- recorded conditions: 72 h; 1 nM
# cell viability per record follows
Respond numerically; units are % and should not be typed.

Some solved entries appear below for comparison.
{"compound": "C[C@H](N)Cc1cccc(O)c1 [gepefrine]", "system tested": "Vero E6", "result type": "cell viability", "assay result": 99.7}
{"compound": "Fc1ccc(CNc2ncnc3ccc(F)cc23)cc1 [spautin-1]", "system tested": "Vero E6", "result type": "cell viability", "assay result": 102}
{"compound": "CN(C)CCOC1=Cc2ccccc2Sc2ccc(Cl)cc21 [zotepine]", "system tested": "Vero E6", "result type": "cell viability", "assay result": 99.4}
{"compound": "NNc1nncc2ccccc12 [hydralazine]", "system tested": "Vero E6", "result type": "cell viability", "assay result": 98.7}
{"compound": "Cn1c(=O)c2c(ncn2CC(=O)O)n(C)c1=O [acefylline]", "system tested": "Vero E6", "result type": "cell viability", "assay result": 104}

Annotate the compound CC(C)n1nnc2cc(C(=O)O)ccc21 [IBC-293] with its measured cell viability.
96.6

Annotate the compound CCOC(=O)C1=C(C)NC(C)=C(C(=O)OCC)C1c1ccccc1/C=C/C(=O)OC(C)(C)C [lacidipine] with its measured cell viability.
92

Annotate the compound CCc1cc2cc(OC)c(OC)cc2c(Cc2ccccc2)n1 [moxaverine] with its measured cell viability.
96.5

Annotate the compound Cc1c(N(C)C)c(=O)n(-c2ccccc2)n1C [amidopyrine] with its measured cell viability.
97.8

---

- System: U2OS
- procedure summary: cell viability relative to DMSO; higher = less toxic
- recorded conditions: 72 h; 10000 nM
result type: cell viability (%)
Respond numerically; units are % and should not be typed.

{"compound": "CCC(=N\\O)/C(C)=C/c1ccc(F)cc1", "system tested": "U2OS", "result type": "cell viability", "assay result": 95}

Annotate the compound CC(C(=O)O)c1ccc(CC2CCCC2=O)cc1 (stereo not drawn) with its measured cell viability.
96.9

Annotate the compound Nc1ccc(S(=O)(=O)Nc2nccs2)cc1 with its measured cell viability.
102

Annotate the compound CC(=O)c1cnc2ccc(-c3cc(Cl)c(O)c(Cl)c3)nc2c1N[C@H]1CC[C@H](CN(C)C)CC1 with its measured cell viability.
0

Annotate the compound O=C(NCC1CCOCC1)c1cnc(Nc2ccc(Cl)cc2Cl)nc1C(F)(F)F with its measured cell viability.
93.2

Annotate the compound CN1c2cc3c(cc2N=C(c2ccc(C(=O)O)cc2)c2ccccc21)C(C)(C)CCC3(C)C with its measured cell viability.
57.2

Annotate the compound CO/N=C(\C(=O)N[C@@H]1C(=O)N2C(C(=O)O)=C(CSc3nc(=O)c(O)nn3C)CS[C@H]12)c1csc(N)n1 with its measured cell viability.
97.2

Annotate the compound COc1cc(C[C@H]2c3cc(OC)c(OC)cc3CCN2C)c(Oc2cc3c(cc2OC)-c2c(OC)c(OC)cc4c2[C@H](C3)N(C)CC4)cc1OC with its measured cell viability.
83

---

- Test system: U2OS
- procedure summary: cell viability relative to DMSO; higher = less toxic
- recorded conditions: 72 h; 1 nM
# cell viability per record follows
Report the figure along with its unit, number first.

Some solved entries appear below for comparison.
{"molecule": "C=C[C@H]1CN2CC[C@H]1C[C@H]2[C@H](O)c1ccnc2ccccc12 [cinchonidine]", "system tested": "U2OS", "cell viability": "98.3%"}
{"molecule": "Cc1cc(CC(=O)O)n(C)c1C(=O)c1ccc(Cl)cc1 [zomepirac]", "system tested": "U2OS", "cell viability": "96.6%"}
{"molecule": "CC(C)(O)CC(=O)O [beta-hydroxy-beta-methylbutyrate]", "system tested": "U2OS", "cell viability": "105%"}

Annotate the molecule O=C1c2ccccc2-n2c1nc1ccccc1c2=O [tryptanthrin] with its measured cell viability.
96.5%

Annotate the molecule NC(=O)N/N=C/c1ccc(Oc2ccc(F)cc2)cc1 with its measured cell viability.
95.9%

Annotate the molecule O=C(O)Cc1ccc(CCNS(=O)(=O)c2ccc(Cl)cc2)cc1 [daltroban] with its measured cell viability.
102%

Annotate the molecule C[C@@H]1CCO[C@H]2Cn3cc(C(=O)NCc4ccc(F)cc4F)c(=O)c(O)c3C(=O)N12 [dolutegravir] with its measured cell viability.
104%

Annotate the molecule NC1=NC(=O)N([C@H]2C[C@H](O)[C@@H](CO)O2)CN1 [KP-1212] with its measured cell viability.
92.6%

Annotate the molecule CC(=O)NCC(=O)N[C@H](CCC(=O)O)C(=O)O [N-acetylglycyl-D-glutamic-acid] with its measured cell viability.
102%
